Target chain: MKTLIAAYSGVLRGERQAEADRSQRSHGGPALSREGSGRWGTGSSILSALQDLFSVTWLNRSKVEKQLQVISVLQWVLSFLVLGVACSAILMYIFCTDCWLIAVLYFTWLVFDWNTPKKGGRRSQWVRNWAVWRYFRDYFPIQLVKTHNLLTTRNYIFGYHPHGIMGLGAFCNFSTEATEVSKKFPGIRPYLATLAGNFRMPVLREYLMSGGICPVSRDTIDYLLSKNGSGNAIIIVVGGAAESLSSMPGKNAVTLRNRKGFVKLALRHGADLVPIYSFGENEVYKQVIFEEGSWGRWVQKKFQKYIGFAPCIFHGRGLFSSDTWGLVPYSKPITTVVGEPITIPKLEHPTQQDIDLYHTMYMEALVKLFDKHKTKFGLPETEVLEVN
value type: IC50 (nM)
Field format: number, assumed nM, no unit text.

Req: Look up IC50 for this compound: "CC1(NC(=O)c2cn3nc(Oc4nccnc4OCC(F)(F)F)ccc3n2)CCS(=O)(=O)CC1"
Resp: 901

Req: Look up IC50 for this compound: "Cc1c(C(=O)NC2(C)CCS(=O)(=O)CC2)nc2ccc(Oc3ncc(Cl)cc3OCC(F)F)cn12"
Resp: 1.4

Req: Look up IC50 for this compound: "CCC(F)(F)c1cccnc1Oc1ccc2nc(C(=O)NC3(C)CCS(=O)(=O)CC3)cn2c1"
Resp: 262

Req: Look up IC50 for this compound: "CC1(NC(=O)c2cn3nc(Oc4ncc(F)cc4OC4CCC4)ccc3n2)CCS(=O)(=O)CC1"
Resp: 590

###

Target sequence: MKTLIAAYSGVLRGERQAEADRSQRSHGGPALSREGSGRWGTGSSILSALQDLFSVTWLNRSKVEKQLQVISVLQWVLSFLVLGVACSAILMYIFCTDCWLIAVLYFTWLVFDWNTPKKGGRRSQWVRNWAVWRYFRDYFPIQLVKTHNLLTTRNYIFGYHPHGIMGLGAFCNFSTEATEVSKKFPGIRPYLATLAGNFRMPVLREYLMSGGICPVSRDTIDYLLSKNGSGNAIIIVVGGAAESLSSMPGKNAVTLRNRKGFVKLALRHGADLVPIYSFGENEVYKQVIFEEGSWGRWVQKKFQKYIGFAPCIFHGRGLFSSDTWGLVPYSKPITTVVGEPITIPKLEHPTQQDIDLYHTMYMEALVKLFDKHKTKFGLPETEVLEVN
Provide the reported IC50 of each item.
Field format: number, assumed nM, no unit text.

Req: Look up IC50 for this molecule: "Cc1c(C(=O)NC2(C)CCS(=O)(=O)CC2)nc2cc(F)c(Oc3ncc(Cl)cc3OCC(F)(F)F)cn12"
Resp: 1

Req: Look up IC50 for this molecule: "Cc1c(C(=O)NC2(C)CCN(C(=O)C(F)(F)F)CC2)nc2ccc(Oc3ncc(F)cc3OCC(F)(F)F)cn12"
Resp: 128

Req: Look up IC50 for this molecule: "CC1(NC(=O)c2nc3ccc(Oc4ncccc4OCC(F)(F)F)cn3c2C(F)(F)F)CCS(=O)(=O)CC1"
Resp: 146

Req: Look up IC50 for this molecule: "Cc1cnc(OCC(F)(F)F)c(Oc2ccc3nc(C(=O)NC4(C)CCS(=O)(=O)CC4)c(C)n3c2)n1"
Resp: 131

Req: Look up IC50 for this molecule: "CCOc1cccnc1Oc1ccc2nc(C(=O)Nc3cccnc3)cn2c1"
Resp: 850

Req: Look up IC50 for this molecule: "CC1(NC(=O)c2cn3nc(OCc4c(F)cccc4OC(F)F)ccc3n2)CCS(=O)(=O)CC1"
Resp: 25

Req: Look up IC50 for this molecule: "Cc1c(C(=O)NC2(C)CCS(=O)(=O)CC2)nc2ccc(OCc3ccc(F)cc3)cn12"
Resp: 465

Req: Look up IC50 for this molecule: "CC1(CNC(=O)c2cn3cc(Oc4ncc(Cl)cc4OCC(F)(F)F)ccc3n2)CCS(=O)(=O)CC1"
Resp: 174
